assay target: PRMT5 (C449S)/MEP50 (Homo sapiens, UniProt O14744, C449S)
Sequence (O14744 whole entry C449S): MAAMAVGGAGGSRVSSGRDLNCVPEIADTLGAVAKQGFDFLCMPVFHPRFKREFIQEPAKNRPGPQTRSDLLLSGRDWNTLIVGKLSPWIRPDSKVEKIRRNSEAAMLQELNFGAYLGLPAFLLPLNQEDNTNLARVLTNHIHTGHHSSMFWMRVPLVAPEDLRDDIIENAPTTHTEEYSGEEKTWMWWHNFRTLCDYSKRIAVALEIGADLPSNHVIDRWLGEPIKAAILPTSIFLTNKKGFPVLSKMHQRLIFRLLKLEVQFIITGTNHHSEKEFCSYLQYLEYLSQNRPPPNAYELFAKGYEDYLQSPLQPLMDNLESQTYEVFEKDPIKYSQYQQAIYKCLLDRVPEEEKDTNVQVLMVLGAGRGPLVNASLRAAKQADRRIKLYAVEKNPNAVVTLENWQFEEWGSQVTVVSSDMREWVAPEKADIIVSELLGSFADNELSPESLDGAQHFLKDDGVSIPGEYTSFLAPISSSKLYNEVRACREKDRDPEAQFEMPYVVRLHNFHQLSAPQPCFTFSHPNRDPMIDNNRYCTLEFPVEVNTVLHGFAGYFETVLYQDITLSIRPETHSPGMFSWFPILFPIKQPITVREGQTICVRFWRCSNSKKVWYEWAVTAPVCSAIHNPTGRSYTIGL
Sequence (Q9BQA1 whole entry partner): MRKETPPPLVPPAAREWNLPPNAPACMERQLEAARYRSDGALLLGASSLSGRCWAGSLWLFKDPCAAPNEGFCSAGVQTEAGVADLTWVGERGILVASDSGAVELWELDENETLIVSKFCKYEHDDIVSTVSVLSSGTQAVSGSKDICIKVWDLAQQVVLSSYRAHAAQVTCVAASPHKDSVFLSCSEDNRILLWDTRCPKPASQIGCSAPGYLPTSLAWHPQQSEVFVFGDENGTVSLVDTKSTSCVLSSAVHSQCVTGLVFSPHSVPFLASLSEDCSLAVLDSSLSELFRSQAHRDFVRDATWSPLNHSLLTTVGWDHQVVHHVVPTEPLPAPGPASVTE
assay explanation: HotSpot radioisotope 3H-AdoMet methyltransferase assay, PRMT5 (C449S)/MEP50
readout label: pIC50
Keep in mind that pIC50 stands for -log10 of concentration in molar terms.

Would you kindly share the measured pIC50 for `N=C(NCCCSC[C@H]1O[C@@H](n2cnc3c(N)ncnc32)[C@H](O)[C@@H]1O)Nc1cccc(Br)c1` ?
7.44

###

Reported IC50 values follow for various molecules
assay target: PRMT1 (Homo sapiens)
assay explanation: SAHH-coupled fluorescence assay, PRMT1 inhibition
Format: biochemical
reported conditions: PRMT1 0.1 µM; substrate concentration at 4 Km (footnote a); n = 2, mean ± SD
Procedure: A fluorescence-based SAHH-coupled assay was used to evaluate the IC50 values of inhibitors by monitoring the production of SAH from SAM after methylation. […] The fluorescence signal was monitored on a BMG CLARIOstar microplate reader with excitation at 400 nm and emission at 465 nm for 18 min. Data were processed using GraphPad Prism software 7.0. […] The fluorescence signal was monitored on a BMG CLARIOstar microplate reader with excitation at 400 nm and emission at 465 nm for 18 min. […]
Put down the number, then write its unit next to it.

Known IC50 results, listed for orientation:
molecule: N=C(NCCCSC[C@H]1O[C@@H](n2cnc3c(N)ncnc32)[C@H](O)[C@@H]1O)NC1CCC1 [Compound 6b]
assay target: PRMT1 (Homo sapiens)
IC50: 230 nM

molecule: N=C(NCCCSC[C@H]1O[C@@H](n2cnc3c(N)ncnc32)[C@H](O)[C@@H]1O)Nc1cccc(Br)c1 [Compound 6l]
assay target: PRMT1 (Homo sapiens)
IC50: 90 nM

molecule: N=C(NCCCSC[C@H]1O[C@@H](n2cnc3c(N)ncnc32)[C@H](O)[C@@H]1O)Nc1ccc(Br)cc1 [Compound 6m]
assay target: PRMT1 (Homo sapiens)
IC50: 290 nM

Let us examine a further case.
Would you kindly share the measured IC50 for N=C(NCCCSC[C@H]1O[C@@H](n2cnc3c(N)ncnc32)[C@H](O)[C@@H]1O)NCc1ccc(Br)cc1 [Compound 6n] ?
260 nM

###

assay target: PRMT1 (Homo sapiens)
assay explanation: SAHH-coupled fluorescence assay, PRMT1 inhibition
Type: biochemical
reported conditions: PRMT1 0.1 µM; at Km of SAM (10 µM) and H4-21 peptide (5 µM); n = 2, mean ± SD
IC50 strictly under 200 nM means t; at 200 nM or over means f.

Examples from the recorded data:
compound: N=C(NCCCSC[C@H]1O[C@@H](n2cnc3c(N)ncnc32)[C@H](O)[C@@H]1O)Nc1ccccc1 [Compound 6f]
answer label: f
//
compound: N=C(NCCCSC[C@H]1O[C@@H](n2cnc3c(N)ncnc32)[C@H](O)[C@@H]1O)NCc1ccccc1 [Compound 6g]
answer label: f
//
compound: N=C(NCCCSC[C@H]1O[C@@H](n2cnc3c(N)ncnc32)[C@H](O)[C@@H]1O)NCCc1ccccc1 [Compound 6h]
answer label: f

Record N=C(NCCCSC[C@H]1O[C@@H](n2cnc3c(N)ncnc32)[C@H](O)[C@@H]1O)Nc1ccccc1[N+](=O)[O-] [Compound 6j] : is its IC50 strictly below 200 nM?
f

Also N=C(NCCCSC[C@H]1O[C@@H](n2cnc3c(N)ncnc32)[C@H](O)[C@@H]1O)NC1CCCCC1 [Compound 6d] ?
t

Also N=C(NCCCSC[C@H]1O[C@@H](n2cnc3c(N)ncnc32)[C@H](O)[C@@H]1O)NCCCc1ccccc1 [Compound 6i] ?
f

Also N=C(NCCCSC[C@H]1O[C@@H](n2cnc3c(N)ncnc32)[C@H](O)[C@@H]1O)NC1CCCC1 [Compound 6c] ?
f

Also CCNC(=N)NCCCSC[C@H]1O[C@@H](n2cnc3c(N)ncnc32)[C@H](O)[C@@H]1O [Compound 6a] ?
f

Also N=C(NCCCSC[C@H]1O[C@@H](n2cnc3c(N)ncnc32)[C@H](O)[C@@H]1O)NCC1CCCCC1 [Compound 6e] ?
t

###

assay target: UniProtKB Q9NR22
Sequence (Q9NR22 whole entry): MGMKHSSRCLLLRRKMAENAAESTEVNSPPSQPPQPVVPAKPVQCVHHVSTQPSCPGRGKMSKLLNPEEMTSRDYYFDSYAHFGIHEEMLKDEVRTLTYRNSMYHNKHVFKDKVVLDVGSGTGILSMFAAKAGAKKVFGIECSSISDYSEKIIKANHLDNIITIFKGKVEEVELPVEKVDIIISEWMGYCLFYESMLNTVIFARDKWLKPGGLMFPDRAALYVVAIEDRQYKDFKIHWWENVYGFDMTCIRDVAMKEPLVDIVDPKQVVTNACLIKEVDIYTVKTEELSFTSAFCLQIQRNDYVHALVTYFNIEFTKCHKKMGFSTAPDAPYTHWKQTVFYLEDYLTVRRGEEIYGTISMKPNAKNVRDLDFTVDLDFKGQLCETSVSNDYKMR
readout label: pIC50
Keep in mind that pIC50 stands for -log10 of concentration in molar terms.

Would you kindly share the measured pIC50 for `N=C(NCCCSC[C@H]1O[C@@H](n2cnc3c(N)ncnc32)[C@H](O)[C@@H]1O)Nc1cccc(Br)c1` ?
7.49

###

assay target: PRMT6 (Homo sapiens)
Sequence (Q96LA8 whole entry): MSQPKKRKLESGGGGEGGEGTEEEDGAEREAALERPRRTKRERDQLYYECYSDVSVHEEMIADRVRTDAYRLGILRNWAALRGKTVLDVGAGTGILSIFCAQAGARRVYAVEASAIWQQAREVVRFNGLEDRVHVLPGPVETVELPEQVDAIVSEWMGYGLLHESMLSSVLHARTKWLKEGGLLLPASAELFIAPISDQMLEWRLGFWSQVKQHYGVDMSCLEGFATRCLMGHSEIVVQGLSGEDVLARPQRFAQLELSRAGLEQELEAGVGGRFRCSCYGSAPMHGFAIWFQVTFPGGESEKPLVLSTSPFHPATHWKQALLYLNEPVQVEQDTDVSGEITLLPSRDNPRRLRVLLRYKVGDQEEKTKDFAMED
readout label: IC50 (nM)
Just the number please, in nM, no unit attached.

Would you kindly share the measured IC50 for `N=C(NCCCSC[C@H]1O[C@@H](n2cnc3c(N)ncnc32)[C@H](O)[C@@H]1O)Nc1cccc(Br)c1` ?
30.5

###

assay target: PRMT5/MEP50 Complex (Homo sapiens, UniProt O14744)
Sequence (O14744 whole entry, one chain of several): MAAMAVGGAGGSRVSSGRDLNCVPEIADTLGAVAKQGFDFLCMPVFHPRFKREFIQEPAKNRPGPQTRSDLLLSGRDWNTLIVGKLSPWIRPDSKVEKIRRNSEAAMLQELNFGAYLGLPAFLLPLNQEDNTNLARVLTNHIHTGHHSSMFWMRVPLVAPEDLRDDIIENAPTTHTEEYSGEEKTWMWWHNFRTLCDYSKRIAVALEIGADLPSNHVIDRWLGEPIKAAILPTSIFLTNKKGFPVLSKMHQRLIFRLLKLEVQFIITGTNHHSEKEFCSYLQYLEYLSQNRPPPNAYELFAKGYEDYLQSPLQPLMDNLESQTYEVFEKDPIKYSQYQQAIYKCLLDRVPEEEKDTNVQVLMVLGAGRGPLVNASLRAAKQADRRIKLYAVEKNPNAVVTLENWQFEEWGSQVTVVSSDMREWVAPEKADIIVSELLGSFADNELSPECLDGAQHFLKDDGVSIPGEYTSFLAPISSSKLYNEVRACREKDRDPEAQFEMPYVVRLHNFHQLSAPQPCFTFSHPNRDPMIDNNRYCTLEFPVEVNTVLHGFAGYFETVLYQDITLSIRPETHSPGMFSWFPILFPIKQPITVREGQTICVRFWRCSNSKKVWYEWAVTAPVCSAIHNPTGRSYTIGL
assay explanation: HotSpot radioisotope 3H-AdoMet methyltransferase assay, PRMT5/MEP50
readout label: IC50
Put down the number, then write its unit next to it.

Would you kindly share the measured IC50 for `N=C(NCCCSC[C@H]1O[C@@H](n2cnc3c(N)ncnc32)[C@H](O)[C@@H]1O)Nc1cccc(Br)c1` ?
18.2 nM

###

assay target: PRMT1 (Homo sapiens, UniProt Q99873)
Sequence (Q99873 whole entry, species assumed): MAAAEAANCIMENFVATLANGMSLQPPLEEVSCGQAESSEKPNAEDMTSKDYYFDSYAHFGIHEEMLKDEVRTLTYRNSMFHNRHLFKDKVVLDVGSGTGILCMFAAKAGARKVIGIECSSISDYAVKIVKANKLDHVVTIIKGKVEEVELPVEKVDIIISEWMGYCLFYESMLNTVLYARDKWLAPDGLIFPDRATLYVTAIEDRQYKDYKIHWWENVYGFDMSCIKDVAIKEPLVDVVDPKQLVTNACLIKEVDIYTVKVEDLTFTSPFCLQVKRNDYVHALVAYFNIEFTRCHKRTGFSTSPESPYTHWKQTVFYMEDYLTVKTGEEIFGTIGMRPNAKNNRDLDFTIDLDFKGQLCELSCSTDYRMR
assay explanation: SAHH-coupled fluorescence assay, PRMT1 inhibition
Assay type: biochemical
reported conditions: SAHH-coupled assay, PRMT1; read-out: apparent Ki
Procedure: A fluorescence-based SAHH-coupled assay was used to evaluate the IC50 values of inhibitors by monitoring the production of SAH from SAM after methylation. […] The fluorescence signal was monitored on a BMG CLARIOstar microplate reader with excitation at 400 nm and emission at 465 nm for 18 min. Data were processed using GraphPad Prism software 7.0. […] The fluorescence signal was monitored on a BMG CLARIOstar microplate reader with excitation at 400 nm and emission at 465 nm for 18 min. […]
readout label: Ki

Would you kindly share the measured Ki for `N=C(NCCCSC[C@H]1O[C@@H](n2cnc3c(N)ncnc32)[C@H](O)[C@@H]1O)Nc1cccc(Br)c1` ?
~18 nM

###

assay target: PRMT1 (Homo sapiens, UniProt Q99873)
assay explanation: SAHH-coupled fluorescence assay, PRMT1 inhibition
Format: biochemical
reported conditions: calculated as Ki, app = IC50/(1 + [S]/Km); read-out: Ki, app
readout label: pKi
Keep in mind that pKi stands for -log10 of concentration in molar terms.

molecular string: N=C(NCCCSC[C@H]1O[C@@H](n2cnc3c(N)ncnc32)[C@H](O)[C@@H]1O)NCCCc1ccccc1
pKi: 6.77
--
molecular string: N=C(NCCCSC[C@H]1O[C@@H](n2cnc3c(N)ncnc32)[C@H](O)[C@@H]1O)NC1CCCC1
pKi: 6.96

Let us examine a further case.
Would you kindly share the measured pKi for `N=C(NCCCSC[C@H]1O[C@@H](n2cnc3c(N)ncnc32)[C@H](O)[C@@H]1O)Nc1cccc(Br)c1` ?
7.74
